# credit: ChEMBL document CHEMBL1255286

System: Cryptococcus neoformans
ASSAY_DETAILS: Antimicrobial activity against Cryptococcus neoformans var. grubii by broth microdilution method
Type: functional
API: label(entry) gives label 1 if the entry's MIC90 is strictly smaller than 0.6 µg/mL; on equality or larger values it gives label 0.

Here's what some known entries look like.
| COMPOUND | LABEL |
| --- | --- |
| CC[C@@H]([C@H](C)O)n1ncn(-c2ccc(N3CCN(c4ccc(OC[C@@H]5CO[C@@](Cn6cncn6)(c6ccc(F)cc6F)C5)cc4)CC3)cc2)c1=O | label 0 |
| C[C@@H]1[C@H](O)[C@@H](C)/C=C/C=C/C=C/C=C/C=C/C=C/C=C/[C@H](O[C@@H]2O[C@H](C)[C@@H](O)[C@H](N)[C@@H]2O)C[C@@H]2O[C@](O)(C[C@@H](O)C[C@@H](O)[C@H](O)CC[C@@H](O)C[C@@H](O)CC(=O)O[C@H]1C)C[C@H](O)[C@H]2C(=O)O | label 1 |
| CCC(C)n1ncn(-c2ccc(N3CCN(c4ccc(OCC5COC(Cn6cncn6)(c6ccc(Cl)cc6Cl)O5)cc4)CC3)cc2)c1=O (configuration not stated) | label 1 |
| C[C@@H](c1nc(-c2ccc(C#N)cc2)cs1)[C@](O)(Cn1cncn1)c1cc(F)ccc1F | label 1 |
| C[C@@H](c1ncncc1F)[C@](O)(Cn1cncn1)c1ccc(F)cc1F | label 1 |

MIC90 strictly < 0.6 µg/mL for this compound? Nc1nc(=O)[nH]cc1F
label 0

MIC90 strictly < 0.6 µg/mL for this compound? OC(Cn1cncn1)(Cn1cncn1)c1ccc(F)cc1F
label 0
